Each recorded value in this set is attributed to patent US20230392115A1.

Test: ATP-based cytotoxicity assay (Cmax allowing 100% viability)
Conditions: human, human embryonic pluripotent stem cell line HS420; HS420 cells; ATP quantification assay; read-out: Cmax (in vitro concentration allowing 100% of survival)
parameter: Cmax (nM)
Reply with just the number (in nM).

COc1ccc(-c2cnc3c(-c4cccc5ncccc45)cnn3c2)cc1 [ML347] = 580

Quick one: Cmax of CC(C)Oc1ccc(-c2cnc3c(-c4ccnc5ccccc45)cnn3c2)cc1 [DMH1] ?
970

# input molecule: COc1cc(-c2cc(-c3cccc(O)c3)cnc2N)cc(OC)c1OC [K02288] ; wanted: its Cmax
530

Any idea what Cmax was measured for c1ccc2c(-c3cnn4cc(-c5ccc(OCCN6CCOCC6)cc5)cnc34)ccnc2c1 [DMH2] ?
580

Need Cmax, item Cc1cccc(-c2nn(C(=S)Nc3ccccc3)cc2-c2ccnc3ccccc23)n1 [A8301]
5180
